- ASSAY_TARGET: human TRPV3 (Homo sapiens)
- Sequence (Q8NET8 1-790): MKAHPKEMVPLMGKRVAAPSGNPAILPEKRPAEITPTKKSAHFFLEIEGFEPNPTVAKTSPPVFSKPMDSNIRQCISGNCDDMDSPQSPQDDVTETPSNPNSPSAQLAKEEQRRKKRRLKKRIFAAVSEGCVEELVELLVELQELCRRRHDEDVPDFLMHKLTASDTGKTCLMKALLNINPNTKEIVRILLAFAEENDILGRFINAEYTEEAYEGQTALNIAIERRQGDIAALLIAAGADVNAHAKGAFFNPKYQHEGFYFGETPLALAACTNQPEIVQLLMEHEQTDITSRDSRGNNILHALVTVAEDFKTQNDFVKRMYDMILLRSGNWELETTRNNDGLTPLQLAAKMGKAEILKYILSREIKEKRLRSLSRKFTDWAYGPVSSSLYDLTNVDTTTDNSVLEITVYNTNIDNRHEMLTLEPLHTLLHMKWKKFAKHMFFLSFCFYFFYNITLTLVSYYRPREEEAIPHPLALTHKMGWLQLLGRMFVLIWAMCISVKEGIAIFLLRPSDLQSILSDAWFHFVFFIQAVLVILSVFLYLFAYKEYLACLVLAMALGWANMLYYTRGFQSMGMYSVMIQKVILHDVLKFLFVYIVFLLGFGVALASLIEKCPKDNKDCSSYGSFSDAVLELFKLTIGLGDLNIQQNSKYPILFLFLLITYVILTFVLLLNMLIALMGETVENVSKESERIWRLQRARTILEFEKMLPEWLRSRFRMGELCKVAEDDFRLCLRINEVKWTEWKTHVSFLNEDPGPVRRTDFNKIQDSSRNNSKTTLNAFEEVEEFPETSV
- PROTOCOL_TEXT: Calcium flux assay (FLIPR TETRA), inhibition of 2-APB response
- CONDITION_DETAILS: recombinant HEK293 cells stably expressing human TRPV3; 2-APB at its EC50
pIC50: −log10 of the molar value.
Here the recorded pIC50 is given for each entry.
MEASURED_PROPERTY: pIC50

1. OC(c1ccccn1)C1(c2ccc(-c3ccccc3)cc2)CCC1 (stereo not shown) = 4.70 to 5.29
2. OC(c1ccccn1)C1(c2ccc(C(F)(F)F)c(F)c2)CCC1 (stereo not shown) = 5.30 to 5.96
3. O[C@H](c1ncccn1)C1(c2ccc(C(F)(F)F)cc2)CCC1 = 4.70 to 5.29
4. O[C@H](c1ccccn1)C1(c2ccc(C(F)(F)F)cc2F)CCC1 = 6.00 to 6.30
5. OC(c1ncccn1)C1(c2ccccc2F)CCC1 (stereo not shown) = 4.70 to 5.29
6. OC(c1ncccn1)C1(c2ccc(F)cc2)CCC1 (stereo not shown) = 4.70 to 5.29
7. OC(c1ccccn1)C1(c2ccncc2)CCC1 (stereo not shown) = 4.70 to 5.29
8. OC(c1ccccn1)C1(c2ccccn2)CCC1 (stereo not shown) = 4.70 to 5.29
9. OC(c1ccccn1)C1(c2cccnc2)CCC1 (stereo not shown) = 4.70 to 5.29
10. CC(c1cccc(C(F)(F)F)c1)C1(C(O)c2ccccn2)CCC1 (stereo not shown) = 4.70 to 5.29
11. OC(c1ccccn1)C1(c2cc(F)cc(C(F)(F)F)c2)CCC1 (stereo not shown) = 4.70 to 5.29
12. O[C@@H](c1ncccn1)C1(c2ccc(C(F)(F)F)cc2)CCC1 = 5.30 to 5.96
13. CS(=O)(=O)c1ccc(C2(C(O)c3ccccn3)CCC2)cc1 (stereo not shown) = 4.70 to 5.29
